- studyTarget: recombinant human cGAS (Homo sapiens (Human), UniProt Q8N884)
- Sequence (Q8N884 whole entry): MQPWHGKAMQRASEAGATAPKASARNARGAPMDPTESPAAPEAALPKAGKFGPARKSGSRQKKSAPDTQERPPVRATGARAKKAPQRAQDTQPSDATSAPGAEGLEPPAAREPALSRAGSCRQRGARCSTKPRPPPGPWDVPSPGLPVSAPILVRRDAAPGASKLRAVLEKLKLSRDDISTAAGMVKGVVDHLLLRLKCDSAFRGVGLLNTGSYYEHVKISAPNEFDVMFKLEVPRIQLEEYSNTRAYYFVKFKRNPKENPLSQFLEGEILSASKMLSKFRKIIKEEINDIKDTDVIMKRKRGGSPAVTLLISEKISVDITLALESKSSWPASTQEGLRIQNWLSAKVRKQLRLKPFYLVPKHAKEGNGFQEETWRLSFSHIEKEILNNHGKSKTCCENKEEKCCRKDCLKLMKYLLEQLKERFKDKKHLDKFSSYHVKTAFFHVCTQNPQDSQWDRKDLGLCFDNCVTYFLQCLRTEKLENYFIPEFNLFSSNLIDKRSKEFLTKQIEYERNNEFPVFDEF
- test: In vitro inhibition assay of cGAS activity (cGAMP production, RapidFire mass spectrometry)
- Type: biochemical
- conditionContext: 10 nM recombinant human cGAS, 60 nM 75-bp dsDNA, ATP, GTP, room temperature 3 hours, read-out: IC50 (μM), In vitro inhibition assay for Compounds 95-348
Structures can show the parent of a compound that is named as a salt.
Binary call on IC50 with cut-off 0.05 µM: strictly below means y, and equality or higher means n.

Worked cases, answers included:
1. O[C@H]1C[C@@H](Oc2cc(Cl)c(Cl)c3[nH]cc(-c4cn[nH]c4)c23)C1 | y
2. O=C(CC1COCCO1)N1CCn2c(c(-c3cn[nH]c3)c3ccc(Cl)c(Cl)c32)C1 (stereo not shown) | y
3. O=C1COCCN1CCC(=O)N1CCn2c(c(-c3cn[nH]c3)c3ccc(Cl)c(Cl)c32)C1 | y
4. OCCCNc1cc(Cl)cc2c1c(-c1cn[nH]c1)cn2-c1cn(CCO)nn1 | y
5. Cc1noc(COCC(=O)N2CCn3c(c(-c4cn[nH]c4)c4ccc(Cl)c(Cl)c43)C2)n1 | n

Query: Consider the molecule NC(=O)NCc1[nH]c2c(Cl)c(Cl)ccc2c1-c1cn[nH]c1 . Is its IC50 strictly less than 0.05 µM?
Reply: n

Query: Please give the result for O=C(Nc1cc(Cl)c(Cl)c2[nH]cc(-c3cn[nH]c3)c12)C(O)CO (stereo not shown) too.
Reply: n

Query: Please give the result for O=C(CO)NC1CCn2c1c(-c1cn[nH]c1)c1ccc(Cl)c(Cl)c12 (single isomer, unassigned) [Example 346] too.
Reply: y

Query: Please give the result for Cn1c(CNC(=O)CO)c(-c2cn[nH]c2)c2ccc(Cl)c(Cl)c21 too.
Reply: y

Query: Please give the result for O[C@H]1CC[C@@H](Nc2cc(Cl)c(Cl)c3[nH]cc(-c4cn[nH]c4)c23)C1 (single isomer, unassigned; isomer 2) too.
Reply: y

Query: Please give the result for CC(=O)N1CCn2c(c(-c3cn[nH]c3)c3c(NC(=O)CO)cc(Cl)c(Cl)c32)C1 too.
Reply: n

Query: Please give the result for CC(=O)N1CC(C(=O)N2CCn3c(c(-c4cn[nH]c4)c4ccc(Cl)c(Cl)c43)C2)C1 too.
Reply: n

Query: Please give the result for CCNc1cc(Cl)c(Cl)c2c1c(-c1cn[nH]c1)c1n2CCN(C(C)=O)C1 [Example 255, hydrochloride] too.
Reply: y

Query: Please give the result for CN1CCC(CC(=O)N2CCn3c(c(-c4cn[nH]c4)c4ccc(Cl)c(Cl)c43)C2)C1=O (stereo not shown) too.
Reply: y

====

- studyTarget: recombinant human cGAS (Homo sapiens (Human), UniProt Q8N884)
- test: In vitro inhibition assay of cGAS activity (cGAMP production, RapidFire mass spectrometry)
- Assay type: biochemical
- conditionContext: 10 nM recombinant human cGAS, 60 nM 75-bp dsDNA, ATP, GTP, room temperature 3 hours, read-out: IC50 (μM), In vitro inhibition assay for Compounds 95-348
Counter-ions that a name gives are not always drawn.
Give IC50 for every item shown.
One number for each entry, in µM.

Completed entries (count: 3):
1. CCNc1cc(Cl)c(Cl)c2c1c(-c1cn[nH]c1)c1n2CCN(C)C1=O [Example 149, hydrochloride] | 0.0442
2. O=C(Nc1cc(Cl)c(Cl)c2[nH]nc(-c3cn[nH]c3)c12)C(F)F | 0.0124
3. O=C1NCC(C(=O)N2CCn3c(c(-c4cn[nH]c4)c4ccc(Cl)c(Cl)c43)C2)O1 (single isomer, unassigned) [Example 259] | 0.0373

Query: Would you mind telling me what IC50 value was observed for CC(=O)N1CCOC(CC(=O)N2CCn3c(c(-c4cn[nH]c4)c4ccc(Cl)c(Cl)c43)C2)C1 (single isomer, unassigned) [Example 264] ?
Reply: 0.0462
